Measured values drawn from PubChem BioAssay for this set.

Assay: growth inhibition of GSK3B-pretreated HCT116 cells – cell-based, CellTiter-Glo, 0.2 to 20 µM (AID 1117336)
Settings: HCT116 viability after GSK3B inhibitor, at 20 µM
Active and inactive are the calls of the source.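 Rule for the calls: active = compounds lowering colon cancer cell viability after pretreatment blocking the GSK3B kinase; inactive = the rest.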
Lab note: assign the record to one of active, inactive

compound=COC(=O)[C@@H](N)Cc1ccc(O)c(O)c1 label_class=inactive
compound="CCCNC(C)C(=O)Nc1c(C)csc1C(=O)OC (centres undefined)" label_class=inactive
compound=O=C(O)c1ccc(-n2nc(-c3ccccc3O)nc2-c2ccccc2O)cc1 label_class=active
compound=CCOC(=O)[C@@](C)(N)Cc1ccc(O)c(O)c1 label_class=inactive
compound=Oc1c(I)cc(Cl)c2cccnc12 label_class=active
compound="C[C@@H](c1ncncc1F)C(O)(Cn1cncn1)c1ccc(F)cc1F (some centres undefined)" label_class=inactive
compound=CC(=O)OCC(=O)[C@@]12N=C(C)O[C@@H]1C[C@H]1[C@@H]3CCC4=CC(=O)C=C[C@]4(C)[C@H]3[C@@H](O)C[C@@]12C label_class=inactive
compound=Cc1cc2nc3ccc(=[N+](C)C)cc-3sc2cc1N label_class=active

Data request: # fetch the recorded call for CCN[C@H]1C[C@H](C)S(=O)(=O)c2sc(S(N)(=O)=O)cc21 here
Data returned: inactive

Data request: What outcome does the record of this test show for CC(=O)c1ccc2c(c1)N(CCCN(C)C)c1ccccc1S2 ?
Data returned: active

Data request: Per the records of this test, what outcome belongs to COC(=O)[C@@H]1CC2=CC(=O)CC[C@]2(C)[C@@]23O[C@@H]2C[C@@]2(C)[C@@H](CC[C@@]24CCC(=O)O4)[C@H]13 ?
Data returned: inactive

Data request: How did this test come out for COC(=O)C1=C(C)NC(C)=C(C(=O)OC(C)(C)CN(C)CCC(c2ccccc2)c2ccccc2)C1c1cccc([N+](=O)[O-])c1 (centres undefined) ?
Data returned: active

Data request: Outcome? O=P(O)(O)OC(CO)CO
Data returned: inactive

Data request: What classification did COc1cc(O)c(C(=O)c2ccccc2)cc1S(=O)(=O)O end up with in this test?
Data returned: inactive

====

Assay: differential killing of epithelial or mesenchymal cells, primary screen, imaging, PC-3E GFP, TEM4-18 mCherry, co-culture (AID 1345086);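 note: normalised mesenchymal count divided by normalised epithelial count so high means epithelial killing; cells exposed to compound for 72 h before imaging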
Settings: imaging cell counts, at 1 µM, actives lie on both sides, counts scaled to control wells, 1 = unselective
quantity_kind: red/green cell ratio (normalised)
Simply state the number, no unit and no words.

Consider the following illustrative entries.
compound="CN1C(=O)CC(C)(c2ccccc2)C1=O (configuration not stated)" observed=1.03
compound="CC(=O)OC1CCC23CC1(C)CCC2C(C)(C)CC3OC(C)=O (configuration not stated)" observed=1.04
compound=OC[C@H]1O[C@@H](n2cnc3c(NCc4ccco4)ncnc32)[C@H](O)[C@@H]1O observed=1.48
compound=CC1=CC(=O)C(C(C)C)=CC1=O observed=0.97
compound=CCCCCCCCCCOc1cc2c(=O)c(C(=O)OCC)c[nH]c2cc1OCC observed=1
compound=Cc1cc(O)cc(=O)o1 observed=0.97
compound=O=C(Oc1cc(O)cc2c1C[C@@H](OC(=O)c1cc(O)c(O)c(O)c1)[C@@H](c1cc(O)c(O)c(O)c1)O2)c1cc(O)c(O)c(O)c1 observed=1.04
compound="CC(CCC(=O)O)[C@H]1CCC2C3CC[C@@H]4CC(=O)CC[C@]4(C)C3C=C[C@@]21C (some centres not stated)" observed=0.9
compound=COc1ccc2c(c1)O[C@@H]1COc3cc(OC)c(OC)cc3[C@@H]1C2=O observed=0.88
compound="CCOc1ccc(NC(=O)CC(C)O)cc1 (configuration not stated)" observed=1.16

Data request: Indicate its recorded red/green cell ratio (normalised); the compound in question is CC(=O)CC(c1ccc([N+](=O)[O-])cc1)c1c(O)c2ccccc2oc1=O (configuration not stated)
Data returned: 0.82

Data request: Please look at this compound and report its red/green cell ratio (normalised): COC(=O)[C@@]1(C)CCC[C@]2(C)c3ccc(O)c(C(C)C)c3CCC12 (some centres not stated)
Data returned: 1.1

Data request: Quick one: give measured red/green cell ratio (normalised) for CN=C(N)NCCC[C@H](N)C(=O)O
Data returned: 1.23

Data request: // Input: CC12CCC(CC1)C(C)(C)O2 . Output its red/green cell ratio (normalised) only.
Data returned: 0.83

Data request: Give the reported value of red/green cell ratio (normalised) for this record: C=CC(C)(O)CC/C=C(\C)CCC=C(C)C (configuration not stated)
Data returned: 1.02

Data request: Give red/green cell ratio (normalised) for O=C(O[C@@H]1Cc2c(O)cc(O)cc2O[C@@H]1c1cc(O)c(O)c(O)c1)c1cc(O)c(O)c(O)c1
Data returned: 1.15

Data request: Report red/green cell ratio (normalised), nothing else, for this compound: Cc1cc(O)c(C=O)c(O)c1C(=O)O
Data returned: 0.84
